- tgt: DNA dC->dU-editing enzyme APOBEC-3F (Homo sapiens) (UniProt Q8IUX4)
- Sequence (Q8IUX4 whole entry, looked up): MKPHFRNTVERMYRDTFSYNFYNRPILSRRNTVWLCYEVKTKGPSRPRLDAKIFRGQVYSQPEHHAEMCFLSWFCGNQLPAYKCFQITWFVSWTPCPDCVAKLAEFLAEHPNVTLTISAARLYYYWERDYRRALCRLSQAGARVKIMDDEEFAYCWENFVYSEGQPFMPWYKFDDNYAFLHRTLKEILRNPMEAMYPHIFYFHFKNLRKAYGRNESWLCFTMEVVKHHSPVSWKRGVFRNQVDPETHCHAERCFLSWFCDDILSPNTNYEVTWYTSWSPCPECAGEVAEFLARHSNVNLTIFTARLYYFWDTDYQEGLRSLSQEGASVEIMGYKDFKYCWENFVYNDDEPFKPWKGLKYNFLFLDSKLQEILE
- measurement protocol: qHTS for inhibitors of Vif-A3F interactions: Cherry picks counterscreen; further: nearly all actives have a fitted effect of over 65% in size
- details: HeLa A3F-eYFP/Vif cells, eYFP fluorescence, 24 h; series mostly up to 46.1 µM
- Description: The recent discovery and characterization of host restriction factors, which provide a potent defense to invading retroviruses, has provided new targets for antiviral drug development. […] In the presence of an inhibitor, it is expected that Vif will be unable to degrade A3G-eYFP and/or A3F-eYFP, resulting in an increase in yellow fluorescence. […]
Screen size: about 2,100 compounds; about 1,100 (52%) were called active. Inconclusive results (about 29%) are left out. The call rests on the fitted dose curve; in most records, active means well fitted inhibition curve with a large enough effect; inconclusive means small, poorly fitted or top-dose-only effect; inactive means no such curve, though single readings can be large or run the other way. So high a share suggests a set chosen from earlier hits. This is one part of the list.
Give one outcome, nothing more. List: Y for active, N for inactive

[ask] Dear colleague, could you share the recorded outcome for O=c1[nH]c(-c2cccnc2)nc2sc(-c3ccccc3)cc12 when you have a moment?
[reply] Y

[ask] Proceed to CN1/C(=C\C=C(/C#N)C(=O)Nc2ccc(Cl)cc2)C(C)(C)c2ccccc21
[reply] Y

[ask] Also check COc1cc(CNCCSc2nnnn2C)ccc1OCc1c(F)cccc1Cl
[reply] N

[ask] Now consider CCC(=O)NC(=S)Nc1cccc(Cl)c1N1CCCC1 .
[reply] N

[ask] Item: NC(=O)c1ccccc1NC(=S)NC(=O)CCc1ccccc1
[reply] Y

[ask] Now try Cc1ccc2nc(-c3ccccn3)c(Nc3ccccc3C)n2c1 .
[reply] N

[ask] What do we get for CC[n+]1c(/C=C/Nc2ccccc2)oc2ccc(OC)cc21 ?
[reply] Y

[ask] What do you have for CC(=O)c1sc(N/N=C\c2c(O)ccc3ccccc23)nc1C ?
[reply] Y

[ask] Entry to check: CCOC(=O)c1sc(NC(=S)NC(=O)c2ccco2)nc1C
[reply] N

[ask] Then what about the molecule CC[n+]1c(/C=C/Nc2ccccc2)oc2ccccc21 ?
[reply] Y

[ask] Next record, please: CCOCCC(=O)Nc1ccc2c(c1)c(=O)n(C)n2C/C=C/c1ccccc1
[reply] Y

---

- tgt: DNA dC->dU-editing enzyme APOBEC-3F (Homo sapiens)
- measurement protocol: qHTS for inhibitors of Vif-A3F interactions: Cherry picks counterscreen; further: nearly all actives have a fitted effect of over 65% in size
- details: HeLa A3F-eYFP/Vif cells, eYFP fluorescence, 24 h; series mostly up to 46.1 µM
- Text: The recent discovery and characterization of host restriction factors, which provide a potent defense to invading retroviruses, has provided new targets for antiviral drug development. […] In the presence of an inhibitor, it is expected that Vif will be unable to degrade A3G-eYFP and/or A3F-eYFP, resulting in an increase in yellow fluorescence. […]
The campaign covered roughly 2,100 compounds. About 1,100 (52%) were called active. Not shown: some 29% with an inconclusive outcome. Calls come from the whole dose curve; as a rule, active = well fitted inhibition curve with a large enough effect; inconclusive = small, poorly fitted or top-dose-only effect; inactive = no such curve, though single readings can be large or run the other way. The set was probably picked from earlier hits. Some of the results follow.
Bench note: report the call from active, inactive

[ask] Query: recorded result category for O=C(NC(=S)Nc1c(Cl)cc(Cl)cc1Cl)c1ccccc1 in this test
[reply] inactive

[ask] Also O=C(O)Cc1sc(NC2CCCCC2)nc1-c1ccc(Cl)cc1 ?
[reply] inactive

[ask] Query COc1ccc2nc3ccccc3nc2c1NC(=O)c1ccc(Cl)cc1 next
[reply] active

[ask] Now the compound Cc1ccc2nc(-c3ccccn3)c(NC3CCCC3)n2c1
[reply] inactive

[ask] What about this compound? Cc1ccc(C)c(NC(=O)Cn2cc(S(=O)(=O)Cc3cccc(Cl)c3)c3ccccc32)c1
[reply] active

[ask] Now consider Cc1ccc(C)c2nc3sc(C(=O)N4CCOCC4)c(N)c3cc12 and answer again.
[reply] active

[ask] Repeat for the following compound: Cc1ccc(NC(=O)Cc2ccc(-n3cccc3)cc2)c(C)c1
[reply] inactive

[ask] Next entry: CNC(=O)C(Sc1nc(C)nc2c1oc1ccccc12)C(C)=O (stereo unspecified)
[reply] inactive

[ask] Then what about the compound Cc1ccc(CNC(=O)Cc2ccc(-n3cccc3)cc2)cc1 ?
[reply] active

[ask] Now consider CCc1ccc(C(=O)NC(=S)Nc2ccc(N3CCOCC3)cc2)cc1 .
[reply] inactive

[ask] Okay, and CCOc1ccc(N/C=C/C(=O)c2cc(OC)c(OC)c(OC)c2)cc1 ?
[reply] active

---

- tgt: DNA dC->dU-editing enzyme APOBEC-3F (Homo sapiens) (UniProt Q8IUX4)
- measurement protocol: qHTS for inhibitors of Vif-A3F interactions: Cherry picks counterscreen; further: nearly all actives have a fitted effect of over 65% in size; further: potency means the concentration at half of the fitted maximal effect
- details: HeLa A3F-eYFP/Vif cells, eYFP fluorescence, 24 h; series mostly up to 46.1 µM
The whole screen tested about 2,100 compounds, of which about 1,100 (52%) were called active. Not shown: some 29% with an inconclusive outcome. The set was probably picked from earlier hits. The list shows a part of the results.
endpoint name: Potency

>>> print(df.to_string())
                                   molecule            result
0  COc1ccc(/C=N/NC(=O)c2ccccc2Cl)cc1CSc1nc2ccccc2s1  4.44 µM (active)
1  Cc1ccccc1NCC(=O)N=Nc1c(O)[nH]c2ccc([N+](=O)[O-])cc12          inactive
2  CC(NC(=O)/C(C#N)=C/c1ccc([N+](=O)[O-])o1)c1ccccc1 (stereo not given)  18.4 µM (active)
3  COc1ccccc1-c1cc(NC=O)c2ncc(-c3ccc(S(C)(=O)=O)cc3)n2c1  5.59 µM (active)
4  Cc1cc([N+](=O)[O-])ccc1-c1ccc(/C=N/NC(=O)c2ccc(Br)o2)o1  20.6 µM (active)

[ask] Look up Potency with DNA dC->dU-editing enzyme APOBEC-3F (Homo sapiens) (UniProt Q8IUX4) for this molecule: O=C(N/N=C/c1ccc(-c2ccc([N+](=O)[O-])cc2)o1)[C@H]1C[C@@H]1c1ccccc1
[reply] inactive

[ask] Now try O=C(CSc1nc2ccccc2s1)c1cc2ccccc2o1 .
[reply] inactive

[ask] Check Cc1[nH]c2ccccc2c1/C=N/Nc1ccc([N+](=O)[O-])cc1 too.
[reply] 9.2 µM (active)

[ask] Can you check O=[N+]([O-])c1ccc(N/N=C/c2c[nH]c3ccccc23)c(S(=O)(=O)Nc2ccc(Cl)cc2)c1 next?
[reply] 18.4 µM (active)

[ask] // query: N#C/C(=C\c1ccccc1[N+](=O)[O-])C(=O)NCc1ccccc1
[reply] inactive

[ask] Request: O=[N+]([O-])c1ccc(N=Nc2ccc(O)c3ccccc23)cc1
[reply] inactive

[ask] Param item: CCCn1c(CN2CCN(C(=O)OCC)CC2)nc2cc(NC(=O)C(C)C)ccc21
[reply] 12.5 µM (active)

[ask] Now consider O=[N+]([O-])c1ccc(-c2ccc(/C=N/Nc3nc(NCc4ccccc4)nc(N4CCOCC4)n3)o2)cc1 and answer again.
[reply] 18.4 µM (active)

---

- tgt: DNA dC->dU-editing enzyme APOBEC-3F (Homo sapiens) (UniProt Q8IUX4)
- measurement protocol: qHTS for inhibitors of Vif-A3F interactions: Cherry picks counterscreen; further: nearly all actives have a fitted effect of over 65% in size; further: potency means the concentration at half of the fitted maximal effect
- details: HeLa A3F-eYFP/Vif cells, eYFP fluorescence, 24 h; series mostly up to 46.1 µM
About 1,100 (52%) of roughly 2,100 compounds were called active. Roughly 29% stayed inconclusive and do not appear here. So high a share suggests a set chosen from earlier hits. The list shows a part of the results.
endpoint name: Potency

>>> df
                                   compound                                       tgt            result
0  CCCCCCc1cc2cc(-c3nnc(-c4ccccc4OC)o3)c(=O)oc2cc1O  DNA dC->dU-editing enzyme APOBEC-3F (Homo sapiens) (UniProt Q8IUX4)  1.98 µM (active)
1      COc1ccc(-c2cnc3c(c2)CCC3(C#N)C#N)cc1  DNA dC->dU-editing enzyme APOBEC-3F (Homo sapiens) (UniProt Q8IUX4)    14 µM (active)
2  Cc1ccc(NC(=O)/C=C/c2ccc([N+](=O)[O-])s2)cc1  DNA dC->dU-editing enzyme APOBEC-3F (Homo sapiens) (UniProt Q8IUX4)  10.3 µM (active)
3  Cc1cc(C)cc(NC(=O)/C=C/c2ccc([N+](=O)[O-])s2)c1  DNA dC->dU-editing enzyme APOBEC-3F (Homo sapiens) (UniProt Q8IUX4)  16.4 µM (active)
4  Cc1cccc(CN2C(=O)N/C(=C/c3ccc(C)s3)C2=O)c1  DNA dC->dU-editing enzyme APOBEC-3F (Homo sapiens) (UniProt Q8IUX4)  12.5 µM (active)
5  CCCCCCc1cc2cc(-c3nnc(-c4ccccc4)o3)c(=O)oc2cc1O  DNA dC->dU-editing enzyme APOBEC-3F (Homo sapiens) (UniProt Q8IUX4)  3.53 µM (active)
6  CCCCCCc1cc2cc(-c3nnc(-c4ccccc4O)o3)c(=O)oc2cc1O  DNA dC->dU-editing enzyme APOBEC-3F (Homo sapiens) (UniProt Q8IUX4)          inactive
7  Cc1cc(NC(=O)NC(=O)c2ccccc2NC(=O)C(C)N)ccc1Oc1ncc(Br)cn1 (stereo unspecified)  DNA dC->dU-editing enzyme APOBEC-3F (Homo sapiens) (UniProt Q8IUX4)  3.14 µM (active)

[ask] Give recorded Potency with DNA dC->dU-editing enzyme APOBEC-3F (Homo sapiens) (UniProt Q8IUX4) for the following compound: Nc1ccc(/C=C/c2cc(Cl)nc3ccccc23)cc1
[reply] 23.1 µM (active)

[ask] Lookup O=Cc1s/c(=N\S(=O)(=O)c2ccccc2)n(CCCCl)c1Cl
[reply] 5.8 µM (active)

[ask] Can you check COCc1ccc(O)c2ncccc12 next?
[reply] inactive
